System: S. aureus
Test: Rapid antimicrobial activity: test gel/base mixed with culture and bovine adult serum, 15 seconds, colony count
Type: cell-based, Staphylococcus aureus
Conditions: Table 5; alcohol gel base; 15 seconds; control 1 × 10^8
Here, each record is paired with measured Growth (CFU/ml) data.

Consider the reported Growth (CFU/ml) for these compounds:
{"columns": ["compound", "Growth (CFU/ml)"],
 "data": [
  ["N=C(NCCCCCCNC(=N)NC(=N)Nc1ccc(Cl)cc1)NC(=N)Nc1ccc(Cl)cc1.O=C(O)[C@H](O)[C@@H](O)[C@H](O)[C@H](O)CO.O=C(O)[C@H](O)[C@@H](O)[C@H](O)[C@H](O)CO [0.05% CHG, chlorhexidine digluconate]", "1.1 × 10^7 CFU/ml"],
  ["CCCCC(CC)COCC(O)CO (centres unmarked) [2.0% Sensiva, glycerol 1-(2-ethylhexyl)ether]", "3 × 10^6 CFU/ml"],
  ["Oc1cc(Cl)ccc1Oc1ccc(Cl)cc1Cl [0.3% TC, triclosan]", "1.0 × 10^8 CFU/ml"]
]}

Entry Clc1ccc(COC(Cn2ccnc2)c2ccc(Cl)cc2Cl)c(Cl)c1 (centres unmarked) [1.0% Miconazole, miconazole] : reported Growth (CFU/ml) = ?
1.0 × 10^8 CFU/ml

Next compound up: CC(C)(C)CC(C)(C)c1ccc(OCCOCC[N+](C)(C)Cc2ccccc2)cc1 [0.12% BZT, benzethonium chloride]
1.0 × 10^7 CFU/ml

* * *

System: S. aureus
Test: Rapid antimicrobial activity: test gel/base mixed with culture and bovine adult serum, 15 seconds, colony count
Format: cell-based, Staphylococcus aureus
Conditions: Table 1; alcohol gel base of Example 1; 15 seconds; bovine adult serum; control 1 × 10^8
Here, each record is paired with measured S. aureus (cfu/tube) data.

{"columns": ["compound", "S. aureus (cfu/tube)"],
 "data": [
  ["CCCCC(CC)COCC(O)CO (centres unmarked) [0.5% Sensiva, glycerol 1-(2-ethylhexyl)ether]", "1 × 10^7 cfu/tube"],
  ["CCCCC(CC)COCC(O)CO (centres unmarked) [5.0% Sensiva, glycerol 1-(2-ethylhexyl)ether]", "1 × 10^6 cfu/tube"],
  ["CCCCC(CC)COCC(O)CO (centres unmarked) [2.0% Sensiva, glycerol 1-(2-ethylhexyl)ether]", "3 × 10^6 cfu/tube"],
  ["CCCCC(CC)COCC(O)CO (centres unmarked) [1.0% Sensiva, glycerol 1-(2-ethylhexyl)ether]", "4 × 10^7 cfu/tube"]
]}

Here is another compound to look at.
Entry CCCCC(CC)COCC(O)CO (centres unmarked) [3.0% Sensiva, glycerol 1-(2-ethylhexyl)ether] : reported S. aureus (cfu/tube) = ?
1 × 10^6 cfu/tube

Taken from patent US8293802B2.
